The reported measurements were obtained from paper PMC4434323.

# study_system: F55C5.11 (F55C5.11) (Caenorhabditis elegans) (UniProt Q1ZXU0)
# Sequence: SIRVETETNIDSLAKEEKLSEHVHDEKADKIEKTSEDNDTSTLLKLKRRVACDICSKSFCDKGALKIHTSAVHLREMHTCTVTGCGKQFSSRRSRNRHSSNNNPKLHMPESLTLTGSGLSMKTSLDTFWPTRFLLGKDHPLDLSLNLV
measured_endpoint: binding signal (PBM E-score (-0.5 to 0.5))

{"seq": "CTGTCACC (double strand) [8-mer CTGTCACC]", "number": 0.487}
{"seq": "ATTGTCAC (double strand) [8-mer ATTGTCAC]", "number": 0.486}
{"seq": "GGTGTCAC (double strand) [8-mer GGTGTCAC]", "number": 0.486}
{"seq": "AGTGTCAC (double strand) [8-mer AGTGTCAC]", "number": 0.487}

###

binding signal (PBM E-score (-0.5 to 0.5)) reference
# study_system: pag-3 (F45B8.4) (Caenorhabditis elegans) (UniProt G5EDE1)
# Sequence (G5EDE1 76-311): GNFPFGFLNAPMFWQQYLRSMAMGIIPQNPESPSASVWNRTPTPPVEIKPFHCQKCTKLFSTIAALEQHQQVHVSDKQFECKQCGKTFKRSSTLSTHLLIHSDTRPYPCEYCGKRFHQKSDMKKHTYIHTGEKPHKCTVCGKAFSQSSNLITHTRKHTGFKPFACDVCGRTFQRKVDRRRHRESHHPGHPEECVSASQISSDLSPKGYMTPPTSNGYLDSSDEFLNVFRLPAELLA
measured_endpoint: binding signal (PBM E-score (-0.5 to 0.5))

{"seq": "CAAATCTG (double strand) [8-mer CAAATCTG]", "study_system": "pag-3 (F45B8.4) (Caenorhabditis elegans) (UniProt G5EDE1)", "number": 0.489}
{"seq": "AAAATCTG (double strand) [8-mer AAAATCTG]", "study_system": "pag-3 (F45B8.4) (Caenorhabditis elegans) (UniProt G5EDE1)", "number": 0.491}
{"seq": "CAGATTTA (double strand) [8-mer CAGATTTA]", "study_system": "pag-3 (F45B8.4) (Caenorhabditis elegans) (UniProt G5EDE1)", "number": 0.489}
{"seq": "AATCACAG (double strand) [8-mer AATCACAG]", "study_system": "pag-3 (F45B8.4) (Caenorhabditis elegans) (UniProt G5EDE1)", "number": 0.491}
{"seq": "CAAATCAC (double strand) [8-mer CAAATCAC]", "study_system": "pag-3 (F45B8.4) (Caenorhabditis elegans) (UniProt G5EDE1)", "number": 0.487}
{"seq": "AATCAGTG (double strand) [8-mer AATCAGTG]", "study_system": "pag-3 (F45B8.4) (Caenorhabditis elegans) (UniProt G5EDE1)", "number": 0.491}
{"seq": "AAATCTGA (double strand) [8-mer AAATCTGA]", "study_system": "pag-3 (F45B8.4) (Caenorhabditis elegans) (UniProt G5EDE1)", "number": 0.486}
{"seq": "AATCTCAG (double strand) [8-mer AATCTCAG]", "study_system": "pag-3 (F45B8.4) (Caenorhabditis elegans) (UniProt G5EDE1)", "number": 0.49}
{"seq": "AAATCACA (double strand) [8-mer AAATCACA]", "study_system": "pag-3 (F45B8.4) (Caenorhabditis elegans) (UniProt G5EDE1)", "number": 0.49}
{"seq": "AATCACTG (double strand) [8-mer AATCACTG]", "study_system": "pag-3 (F45B8.4) (Caenorhabditis elegans) (UniProt G5EDE1)", "number": 0.49}
{"seq": "AAATCACG (double strand) [8-mer AAATCACG]", "study_system": "pag-3 (F45B8.4) (Caenorhabditis elegans) (UniProt G5EDE1)", "number": 0.492}
{"seq": "AAATCTGG (double strand) [8-mer AAATCTGG]", "study_system": "pag-3 (F45B8.4) (Caenorhabditis elegans) (UniProt G5EDE1)", "number": 0.493}
{"seq": "AAATCTGT (double strand) [8-mer AAATCTGT]", "study_system": "pag-3 (F45B8.4) (Caenorhabditis elegans) (UniProt G5EDE1)", "number": 0.49}
{"seq": "AATCTGTG (double strand) [8-mer AATCTGTG]", "study_system": "pag-3 (F45B8.4) (Caenorhabditis elegans) (UniProt G5EDE1)", "number": 0.487}
{"seq": "AAATCTCA (double strand) [8-mer AAATCTCA]", "study_system": "pag-3 (F45B8.4) (Caenorhabditis elegans) (UniProt G5EDE1)", "number": 0.487}

###

Listing: binding signal (PBM E-score (-0.5 to 0.5)) of selected sequences
# Test system: nhr-216 (T09D3.4) (Caenorhabditis elegans)
# Sequence: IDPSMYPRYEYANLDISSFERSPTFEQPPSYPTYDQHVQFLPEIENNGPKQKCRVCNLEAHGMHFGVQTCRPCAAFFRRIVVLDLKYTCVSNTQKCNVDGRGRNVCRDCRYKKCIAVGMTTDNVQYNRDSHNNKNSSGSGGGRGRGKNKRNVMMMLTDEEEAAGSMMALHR
measured_endpoint: binding signal (PBM E-score (-0.5 to 0.5))

{"seq": "GGACAGAA (double strand) [8-mer GGACAGAA]", "number": 0.493}
{"seq": "TGTCAGAA (double strand) [8-mer TGTCAGAA]", "number": 0.496}
{"seq": "GGTCAGAA (double strand) [8-mer GGTCAGAA]", "number": 0.498}
{"seq": "AGTCAGAA (double strand) [8-mer AGTCAGAA]", "number": 0.498}
{"seq": "CGTCAGAA (double strand) [8-mer CGTCAGAA]", "number": 0.493}
{"seq": "AAGTCAGA (double strand) [8-mer AAGTCAGA]", "number": 0.493}
{"seq": "GTCAGAAC (double strand) [8-mer GTCAGAAC]", "number": 0.498}
{"seq": "GTCAGAAA (double strand) [8-mer GTCAGAAA]", "number": 0.496}
{"seq": "GATCAGAA (double strand) [8-mer GATCAGAA]", "number": 0.497}
{"seq": "AATCAGAA (double strand) [8-mer AATCAGAA]", "number": 0.497}
{"seq": "CTTCTGAC (double strand) [8-mer CTTCTGAC]", "number": 0.498}
{"seq": "ATCAGAAC (double strand) [8-mer ATCAGAAC]", "number": 0.494}
{"seq": "ATTCTGAC (double strand) [8-mer ATTCTGAC]", "number": 0.495}
{"seq": "ATCAGAAG (double strand) [8-mer ATCAGAAG]", "number": 0.494}
{"seq": "TCTGACCA (double strand) [8-mer TCTGACCA]", "number": 0.491}

###

# study_system: nhr-168 (C50B6.8) (Caenorhabditis elegans) (UniProt P91983)
# Sequence: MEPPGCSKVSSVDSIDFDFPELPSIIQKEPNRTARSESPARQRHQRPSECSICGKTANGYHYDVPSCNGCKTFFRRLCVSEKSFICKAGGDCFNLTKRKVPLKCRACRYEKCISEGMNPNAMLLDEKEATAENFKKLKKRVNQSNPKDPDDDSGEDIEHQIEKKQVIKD
measured_endpoint: binding signal (PBM E-score (-0.5 to 0.5))

{"seq": "ATGTTCTC (double strand) [8-mer ATGTTCTC]", "number": 0.465}
{"seq": "AAAATGTT (double strand) [8-mer AAAATGTT]", "number": 0.458}
{"seq": "GTACAAAA (double strand) [8-mer GTACAAAA]", "number": 0.46}
{"seq": "AAATGTTC (double strand) [8-mer AAATGTTC]", "number": 0.487}
{"seq": "AATGATCT (double strand) [8-mer AATGATCT]", "number": 0.45}
{"seq": "AGTACAAA (double strand) [8-mer AGTACAAA]", "number": 0.456}
{"seq": "AATGTTCT (double strand) [8-mer AATGTTCT]", "number": 0.482}

###

# study_system: lin-29 (W03C9.4) (Caenorhabditis elegans) (UniProt G5EGB2)
# Sequence: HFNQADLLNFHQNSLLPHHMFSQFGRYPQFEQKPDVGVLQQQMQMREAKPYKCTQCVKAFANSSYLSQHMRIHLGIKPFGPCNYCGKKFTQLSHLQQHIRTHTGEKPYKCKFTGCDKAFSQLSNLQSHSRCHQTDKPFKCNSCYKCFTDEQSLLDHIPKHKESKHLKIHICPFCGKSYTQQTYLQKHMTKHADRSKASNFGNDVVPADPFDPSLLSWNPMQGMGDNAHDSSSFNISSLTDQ
measured_endpoint: binding signal (PBM E-score (-0.5 to 0.5))

{"seq": "AAAAAAAC (double strand) [8-mer AAAAAAAC]", "number": 0.497}
{"seq": "AGAAAAAA (double strand) [8-mer AGAAAAAA]", "number": 0.494}
{"seq": "AAAAAAAG (double strand) [8-mer AAAAAAAG]", "number": 0.495}
{"seq": "AAAAAACT (double strand) [8-mer AAAAAACT]", "number": 0.495}
{"seq": "AAAAAAAT (double strand) [8-mer AAAAAAAT]", "number": 0.496}
{"seq": "GTTTTTTA (double strand) [8-mer GTTTTTTA]", "number": 0.494}
{"seq": "ATAAAAAA (double strand) [8-mer ATAAAAAA]", "number": 0.498}
{"seq": "GTAAAAAA (double strand) [8-mer GTAAAAAA]", "number": 0.494}
{"seq": "GCAAAAAA (double strand) [8-mer GCAAAAAA]", "number": 0.494}
